- experiment.summary: Caco-2 assay (permeability PappAB, PappBA, efflux ratio)
- Format: in vitro ADME
- measurement.parameters: human, Caco-2; apical to basolateral; 10 μM test compound, pH 7.4
parameter.measured: Papp A→B at 90 min, 10 μM (×10⁻⁶ cm/s)
Output spec: scalar in ×10⁻⁶ cm/s, unitless text.

## Task Any idea what Papp A→B at 90 min, 10 μM was measured for CO[C@H]1CCN(C)[C@@H]1[C@H](C)Oc1cc(N2CCNC3(CC3)C2)nc(-c2onc3c2CCC[C@@]32CCCc3sc(N)c(C#N)c32)n1 [I-49] ?
## Result 10

## Task Any idea what Papp A→B at 90 min, 10 μM was measured for C[C@H](Oc1cc(-n2cc(Cn3ccnc3)nn2)nc(-c2noc3c2CCC[C@@]32CCCc3sc(N)c(C#N)c32)n1)[C@@H]1CCCN1C [II-113] ?
## Result 1.1

## Task Any idea what Papp A→B at 90 min, 10 μM was measured for C[C@H](Oc1cc(N2CCNC3(CC3)C2)nc(-c2onc3c2CCC[C@@]32CCCc3sc(N)c(C#N)c32)n1)[C@@H]1CCCN1C [I-5] ?
## Result 1.1

* * *

- Tested on: LOVO cells
- experiment.summary: LOVO CTG proliferation assay (120 h) (CRC, G13D)
- Format: cell-based
- measurement.parameters: Homo sapiens, CTG 120 h
parameter.measured: pIC50
// pIC50 is dimensionless: -log10 of concentration (M)

Worked set:
| compound | obs.value |
| --- | --- |
| C[C@H](Oc1cc(-n2cncn2)nc(-c2onc3c2CCC[C@@]32CCCc3sc(N)c(C#N)c32)n1)[C@@H]1CCCN1C | 6.59 |
| C[C@H](Oc1cc(N2C[C@H](C)N(C)[C@@H](C)C2)nc(-c2noc3c2CCC[C@@]32CCCc3sc(N)c(C#N)c32)n1)[C@@H]1CCCN1C | 5.91 |
| C[C@H](Oc1cc(N2C[C@H]3CN(C)C[C@H]3C2)nc(-c2noc3c2CCC[C@@]32CCCc3sc(N)c(C#N)c32)n1)[C@@H]1CCCN1C | 6.13 |

## Task Any idea what pIC50 was measured for C[C@H](Oc1cc(-c2cncnc2)nc(-c2noc3c2CCC[C@@]32CCCc3sc(N)c(C#N)c32)n1)[C@@H]1CCCN1C ?
## Result 6.14

## Task Any idea what pIC50 was measured for CO[C@H]1CCN(C)[C@@H]1[C@H](C)Oc1cc(-n2ccc(CC(=O)NC(C)C)n2)nc(-c2onc3c2CCC[C@@]32CCCc3sc(N)c(C#N)c32)n1 ?
## Result 7.64

## Task Any idea what pIC50 was measured for C[C@H](Oc1cc(-c2cn(C3COC3)nn2)nc(-c2noc3c2CCC[C@@]32CCCc3sc(N)c(C#N)c32)n1)[C@@H]1CCCN1C ?
## Result 7.08

## Task Any idea what pIC50 was measured for C[C@H](Oc1cc([C@@H]2CCOC2)nc(-c2noc3c2CCC[C@@]32CCCc3sc(N)c(C#N)c32)n1)[C@@H]1CCCN1C ?
## Result 7.29

## Task Any idea what pIC50 was measured for C[C@H](Oc1cc(-n2ccnn2)nc(-c2onc3c2CCC[C@@]32CCCc3sc(N)c(C#N)c32)n1)[C@@H]1CCCN1C ?
## Result 6.80

## Task Any idea what pIC50 was measured for C[C@H](Oc1cc(-n2cc(-c3cncs3)nn2)nc(-c2noc3c2CCC[C@@]32CCCc3sc(N)c(C#N)c32)n1)[C@@H]1CCCN1C ?
## Result 7.01

## Task Any idea what pIC50 was measured for COCCNC(=O)c1ccn(-c2cc(O[C@@H](C)[C@@H]3[C@@H](OC)CCN3C)nc(-c3noc4c3CCC[C@@]43CCCc4sc(N)c(C#N)c43)n2)n1 ?
## Result 7.82
